Each entry below carries its reported IC50 of neutralisation of HIV-1 IIIB in TZM-bl cells, Exp1.
- TARGET_OR_SYSTEM: HIV-1 envelope glycoprotein gp120 (IIIB) (HIV-1 IIIB (HXB2 clone entry), UniProt P04578)
- ASSAY_NOTES: cell-based or functional assay
All answers are understood in µg/mL, so give the number only.

These solved cases illustrate the format of a correct answer.
Query: Fill in the blank: the reported IC50 of neutralisation of HIV-1 IIIB in TZM-bl cells, Exp1 of VHH D7 Trp96→Ala (VHH, PDB 2xa3 holds D7 with five framework changes) with the stated CDR3 mutation; Chothia numbering) VHH: AVQLVESGGGLAQAGGSLRLSCTVSGRTSSSHDMGWFRQAPGKEREFVAAISWSGGTTNYADSVKGRFAISKDNAKNAVSLQMNSLKPEDTAVYYCAAKARPLRYSDNPSNSDYNYWGQGTQVTVSS is ____.
Reply: 2.72

Query: Fill in the blank: the reported IC50 of neutralisation of HIV-1 IIIB in TZM-bl cells, Exp1 of VHH D7 Asp100C→Ala (VHH, PDB 2xa3 holds D7 with five framework changes) with the stated CDR3 mutation; Chothia numbering (100C is an insertion position)) VHH: AVQLVESGGGLAQAGGSLRLSCTVSGRTSSSHDMGWFRQAPGKEREFVAAISWSGGTTNYADSVKGRFAISKDNAKNAVSLQMNSLKPEDTAVYYCAAKWRPLRYSANPSNSDYNYWGQGTQVTVSS is ____.
Reply: 0.4

Query: Fill in the blank: the reported IC50 of neutralisation of HIV-1 IIIB in TZM-bl cells, Exp1 of VHH D7 Tyr100A→Ala (VHH, PDB 2xa3 holds D7 with five framework changes) with the stated CDR3 mutation; Chothia numbering (100A is an insertion position)) VHH: AVQLVESGGGLAQAGGSLRLSCTVSGRTSSSHDMGWFRQAPGKEREFVAAISWSGGTTNYADSVKGRFAISKDNAKNAVSLQMNSLKPEDTAVYYCAAKWRPLRASDNPSNSDYNYWGQGTQVTVSS is ____.
Reply: 0.028

Query: Fill in the blank: the reported IC50 of neutralisation of HIV-1 IIIB in TZM-bl cells, Exp1 of llama heavy chain antibody fragment VHH D7, wild type (VHH, PDB 2xa3 holds D7 with the framework changes Val5Gln, Ala11Val, Ala61Val, Ala68Asp and Ser79Tyr against wild type D7) VHH: AVQLVESGGGLAQAGGSLRLSCTVSGRTSSSHDMGWFRQAPGKEREFVAAISWSGGTTNYADSVKGRFAISKDNAKNAVSLQMNSLKPEDTAVYYCAAKWRPLRYSDNPSNSDYNYWGQGTQVTVSS is ____.
Reply: 0.066

---
Query: Fill in the blank: the reported IC50 of neutralisation of HIV-1 IIIB in TZM-bl cells, Exp1 of VHH D7 double mutant Asn101→Tyr/Tyr102→Asp (VHH, PDB 2xa3 holds D7 with five framework changes) with the stated CDR3 mutations; Chothia numbering; also called double mutant Asn^101Tyr^102) VHH: AVQLVESGGGLAQAGGSLRLSCTVSGRTSSSHDMGWFRQAPGKEREFVAAISWSGGTTNYADSVKGRFAISKDNAKNAVSLQMNSLKPEDTAVYYCAAKWRPLRYSDNPSNSDYYDWGQGTQVTVSS is ____.
Reply: 0.017
